Tested on: C-32 (human amelanotic melanoma)
Assay: WST-1 proliferation assay, C-32
Type: cell-based
Conditions: Homo sapiens, C32, 72 h, C-32 cells, 72 h exposure, read-out: Antiproliferative activity IC50 C-32
metric-name: IC50 (µg/mL)

>  <compound>
CCN(CC)CC#CCSc1nc(Cl)nc2ncn(C)c12

>  <units-label>
µg/mL

>  <rel>
=

>  <value>
11.9

$$$$
>  <compound>
CCN(CC)CC#CCSc1nc2c(c(=O)[nH]c(=O)n2C)n1C [Compound 10d]

>  <units-label>
µg/mL

>  <rel>
=

>  <value>
26.4

$$$$
>  <compound>
Cn1c(SCC#CCN2CCOCC2)nc2c1c(=O)[nH]c(=O)n2C [Compound 10c]

>  <units-label>
µg/mL

>  <rel>
=

>  <value>
223

$$$$
>  <compound>
Cn1c(SCC#CCN2CCCCC2)nc2nc(Cl)nc(SCC#CCN3CCCCC3)c21 [Compound 15b]

>  <units-label>
µg/mL

>  <rel>
=

>  <value>
19.1

$$$$
>  <compound>
CCN(CC)CC#CCSc1nc(SCC#CCN(CC)CC)c2c(ncn2C)n1

>  <units-label>
µg/mL

>  <rel>
=

>  <value>
23.9

$$$$
>  <compound>
Cn1cnc2nc(Cl)nc(SCC#CCN3CCCCC3)c21

>  <units-label>
µg/mL

>  <rel>
=

>  <value>
21

$$$$
>  <compound>
Cn1cnc2nc(Cl)nc(SCC#CCN3CCOCC3)c21

>  <units-label>
µg/mL

>  <rel>
=

>  <value>
125

$$$$
>  <compound>
C#CCSc1nc2c(c(=O)[nH]c(=O)n2C)n1C

>  <units-label>
µg/mL

>  <rel>
>

>  <value>
100

$$$$
>  <compound>
Cn1cnc2nc(SCC#CCN3CCCC3)nc(SCC#CCN3CCCC3)c21

>  <units-label>
µg/mL

>  <rel>
=

>  <value>
6.81

$$$$
>  <compound>
Cn1c(SCC#CCN2CCCCC2)nc2c1c(=O)[nH]c(=O)n2C [Compound 10b]

>  <units-label>
µg/mL

>  <rel>
=

>  <value>
355

$$$$
>  <compound>
Cn1cnc2nc(SCC#CCN3CCOCC3)nc(SCC#CCN3CCOCC3)c21

>  <units-label>
µg/mL

>  <rel>
=

>  <value>
0.35

$$$$
>  <compound>
Cn1cnc2nc(SCC#CCN3CCCCC3)nc(SCC#CCN3CCCCC3)c21

>  <units-label>
µg/mL

>  <rel>
=

>  <value>
6.39

$$$$
>  <compound>
C#CCSc1nc(Cl)nc2nc(SCC#C)n(C)c12

>  <units-label>
µg/mL

>  <rel>
=

>  <value>
270

$$$$
>  <compound>
Cn1c(SCC#CCN2CCCC2)nc2c1c(=O)[nH]c(=O)n2C [Compound 10a]

>  <units-label>
µg/mL

>  <rel>
=

>  <value>
51.1

$$$$

====

Parameter melting point: see the listing below.

>  <compound>
Cn1c(SCC#CCN2CCOCC2)nc2c1c(=O)[nH]c(=O)n2C [Compound 10c]

>  <melting point>
174 to 176 °C

$$$$
>  <compound>
Cn1c(SCC#CCN2CCOCC2)nc2nc(Cl)nc(SCC#CCN3CCOCC3)c21 [Compound 15c]

>  <melting point>
112 to 113 °C

$$$$
>  <compound>
CCN(CC)CC#CCSc1nc(Cl)nc2ncn(C)c12 [Compound 2c]

>  <melting point>
117 to 118 °C

$$$$
>  <compound>
Cn1cnc2nc(SCC#CCN3CCCCC3)nc(SCC#CCN3CCCCC3)c21 [Compound 5b]

>  <melting point>
130 to 132 °C

$$$$
